Reference for the values: patent US9605283B2

Experiment Description: Malate dehydrogenase activity (natural substrate)
Format: biochemical
Test Context: activity measured at 50 mM malate; Table 4
Give Max. specific activity, malate for every item shown.
The figure you give is taken to be in µmol/mg/min; do not add the unit.

Problem: GET /values?readout=Max. specific activity, malate&item= Ec-MdhR81A I12V: E. coli malate dehydrogenase mutant R81A I12V, SEQ ID No. 162 (protein, listed as Escherichia coli) MKVAVLGAAGGVGQALALLLKTQLPSGSELSLYDIAPVTPGVAVDLSHIPTAVKIKGFSGEDATPALEGADVVLISAGVAAKPGMDRSDLFNVNAGIVKNLVQQVAKTCPKACIGIITNPVNTTVAIAAEVLKKAGVYDKNKLFGVTTLDIIRSNTFVAELKGKQPGEVEVPVIGGHSGVTILPLLSQVPGVSFTEQEVADLTKRIQNAGTEVVEAKAGGGSATLSMGQAAARFGLSLVRALQGEQGVVECAYVEGDGQYARFFSQPLLLGKNGVEERKSIGTLSAFEQNALEGMLDTLKKDIALGEEFVNK
Solution: 0.66

Problem: GET /values?readout=Max. specific activity, malate&item= Ec-MdhR81A M85Q I12V: E. coli malate dehydrogenase mutant R81A M85Q I12V, SEQ ID No. 164 (protein, listed as Escherichia coli) MKVAVLGAAGGVGQALALLLKTQLPSGSELSLYDIAPVTPGVAVDLSHIPTAVKIKGFSGEDATPALEGADVVLISAGVAAKPGQDRSDLFNVNAGIVKNLVQQVAKTCPKACIGIITNPVNTTVAIAAEVLKKAGVYDKNKLFGVTTLDIIRSNTFVAELKGKQPGEVEVPVIGGHSGVTILPLLSQVPGVSFTEQEVADLTKRIQNAGTEVVEAKAGGGSATLSMGQAAARFGLSLVRALQGEQGVVECAYVEGDGQYARFFSQPLLLGKNGVEERKSIGTLSAFEQNALEGMLDTLKKDIALGEEFVNK
Solution: 0.98
